Target: T1, human TSLP (human, UniProt Q969D9 29-159)
T1 construct: used biotinylated in some assays; also called hTSLP; recombinant human TSLP
T1 sequence (Q969D9 29-159 R127A/R130S limits assumed): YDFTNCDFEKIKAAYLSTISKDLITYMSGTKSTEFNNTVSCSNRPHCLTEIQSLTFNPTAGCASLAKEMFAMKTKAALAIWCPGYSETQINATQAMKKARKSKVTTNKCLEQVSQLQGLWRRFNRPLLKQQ
Experiment: ELISA, plate coated with human TSLP, test antibodies as human IgG1
Parameter: EC50 (read off the curve)

Param item = TSLP-0201 (antibody, V domains shown) VH: QVQLVQSGAEVKKPGSSVKVSCKASGFTFGSYGINWVRQAPGQGLEWMGVIVPLVGVTIYAEKFQGRVTITADTSTSTAYMELSSLRSEDTAVYYCARGQEYFYWYFDLWGQGTLVTVSS VL: QSALTQPPSASGSPGQSVTISCSGSSSDIGGYNRVSWYQQHPGKAPKLMIYDVSKRPSGVPDRFSGSKSGNTASLTVSGLQAEDEADYYCSSYAGTDTFILFGGGTKLTVL ; retrieve measured EC50 (read off the curve).
~0.07 µg/mL

All figures here come from patent US20250277022A1.
